System: Huh7
protocol-details: Cell cytotoxicity assay, HUH7
Assay type: cell-based
condition: Huh7 cells, 5 days at 37° C., XTT dye
endpoint: log10 of CC50 (log10 of the value in nM)

compound	log10 of CC50
C[C@H](NP(=O)(OC[C@H]1OC[C@@H](n2ccc(N)nc2=O)O1)Oc1ccccc1)C(=O)OCc1ccccc1 (single isomer, unassigned; dia-2) [19 dia-2]	1.85
CC[C@@H](C)OC(=O)[C@H](C)NP(=O)(OC[C@H]1OC[C@@H](n2ccc(N)nc2=O)O1)Oc1ccccc1 (single isomer, unassigned; dia-1) [18 dia-1]	2.66
CCC(CC)COC(=O)[C@H](C)NP(=O)(OC[C@H]1OC[C@@H](n2ccc(N)nc2=O)O1)Oc1ccccc1 (single isomer, unassigned; dia-1) [15 dia-1]	1.40
CCCC(CCC)COC(=O)[C@H](C)NP(=O)(OC[C@H]1OC[C@@H](n2ccc(N)nc2=O)O1)Oc1cccc2ccccc12 (single isomer, unassigned; dia-2) [14 dia-2]	2.30
CCC[C@H](C)OC(=O)[C@H](C)NP(=O)(OC[C@H]1OC[C@@H](n2ccc(N)nc2=O)O1)Oc1ccc(C2CC2)cc1 (single isomer, unassigned; dia-1) [16 dia-1]	3.08

----------
Tested on: HEP3B
protocol-details: Cell cytotoxicity assay, HEP3B
Type: cell-based
condition: HEP3B cells
So basically, if CC50 comes in under 100 nM it's t, and if it's 100 nM or more it's f.

compound	assigned-label
CCC[C@H](C)OC(=O)[C@H](C)NP(=O)(OC[C@H]1OC[C@@H](n2ccc(N)nc2=O)O1)Oc1ccc(C2CC2)cc1 (single isomer, unassigned; dia-2) [16 dia-2]	t
CC[C@@H](C)OC(=O)[C@H](C)NP(=O)(OC[C@H]1OC[C@@H](n2ccc(N)nc2=O)O1)Oc1ccccc1 (single isomer, unassigned; dia-2) [18 dia-2]	f
CC[C@@H](C)OC(=O)[C@H](C)NP(=O)(OC[C@H]1OC[C@@H](n2ccc(N)nc2=O)O1)Oc1ccc([Si](C)(C)C)cc1 (single isomer, unassigned; dia-2) [11 dia-2]	t
CC[C@@H](C)OC(=O)[C@H](C)NP(=O)(OC[C@H]1OC[C@@H](n2ccc(N)nc2=O)O1)Oc1ccccc1 (single isomer, unassigned; dia-1) [18 dia-1]	f
CCC[C@H](C)OC(=O)[C@H](C)NP(=O)(OC[C@H]1OC[C@@H](n2ccc(N)nc2=O)O1)Oc1ccc(C2CC2)cc1 (single isomer, unassigned; dia-1) [16 dia-1]	f
COC(=O)[C@H](C)NP(=O)(OC[C@H]1OC[C@@H](n2ccc(N)nc2=O)O1)Oc1ccccc1 (single isomer, unassigned; dia-2) [26 dia-2]	f
CCC[C@H](C)OC(=O)[C@H](C)NP(=O)(OC[C@H]1OC[C@@H](n2ccc(N)nc2=O)O1)Oc1ccccc1 (single isomer, unassigned; dia-2)	t
C[C@H](NP(=O)(OC[C@H]1OC[C@@H](n2ccc(N)nc2=O)O1)Oc1ccccc1)C(=O)OCc1ccccc1 (single isomer, unassigned; dia-2)	t
CC[C@@H](C)OC(=O)[C@H](C)NP(=O)(OC[C@H]1OC[C@@H](n2ccc(N)nc2=O)O1)Oc1ccc([Si](C)(C)C)cc1 (single isomer, unassigned; dia-1) [11 dia-1]	t
CCCC(CCC)COC(=O)[C@H](C)NP(=O)(OC[C@H]1OC[C@@H](n2ccc(N)nc2=O)O1)Oc1ccc(Br)cc1 (single isomer, unassigned; dia-1)	t
CCCC(CCC)COC(=O)[C@H](C)NP(=O)(OC[C@H]1OC[C@@H](n2ccc(N)nc2=O)O1)Oc1ccccc1 (single isomer, unassigned; dia-2)	t
COC(=O)[C@H](C)NP(=O)(OC[C@H]1OC[C@@H](n2ccc(N)nc2=O)O1)Oc1ccccc1 (single isomer, unassigned; dia-1) [26 dia-1]	f

----------
protocol-details: Cell cytotoxicity assay, HEPG2
Type: cell-based
condition: human; HepG2 cells, 5 days at 37° C., XTT dye
Measured CC50 at 5 days by item
endpoint: CC50 at 5 days (nM)

                                   compound  numeric_value
0  COC(=O)[C@H](C)NP(=O)(OC[C@H]1OC[C@@H](n2ccc(N)nc2=O)O1)Oc1ccc(C2CC2)cc1 (single isomer, unassigned) [34 dia-2]            236
1  CC(C)OC(=O)[C@H](C)NP(=O)(OC[C@H]1OC[C@@H](n2ccc(N)nc2=O)O1)Oc1ccccc1 (single isomer, unassigned) [Example 2]            248
2  COC(=O)[C@H](C)NP(=O)(OC[C@H]1OC[C@@H](n2ccc(N)nc2=O)O1)Oc1ccc(Br)cc1 (single isomer, unassigned) [27 dia-2]            223

----------
System: Huh7
protocol-details: Cell cytotoxicity assay, HUH7
Format: cell-based
condition: Huh7 cells, 5 days at 37° C., XTT dye
endpoint: CC50

compound	endpoint	result
CC[C@@H](C)OC(=O)[C@H](C)NP(=O)(OC[C@H]1OC[C@@H](n2ccc(N)nc2=O)O1)Oc1ccccc1 (single isomer, unassigned; dia-2) [18 dia-2]	CC50	76 nM
CCCCCCCCCCCCCCCC(=O)Nc1ccn([C@@H]2CO[C@H](COP(=O)(N[C@@H](C)C(=O)OC(C)C)Oc3ccccc3)O2)c(=O)n1 (single isomer, unassigned; dia-2)	CC50	11 nM
CC(C)OC(=O)[C@@H](C)NP(=O)(OC[C@H]1OC[C@@H](n2ccc(N)nc2=O)O1)Oc1ccccc1 (single isomer, unassigned; dia-2) [17 dia-2]	CC50	50000 nM

----------
Measured microsomal CLint at 5 μM by item
protocol-details: Stability in human liver S9 fraction (HLS9)
Assay type: in vitro ADME
condition: liver S9 fraction, pH 7.4; human liver S9 0.4 mg protein/mL, 5 μM test compound, 37° C.

compound	microsomal CLint at 5 μM / µL/min/mg
CCC[C@H](C)OC(=O)[C@H](C)NP(=O)(OC[C@H]1OC[C@@H](n2cc(F)c(N)nc2=O)O1)Oc1cccc(C2CC2)c1 (single isomer, unassigned) [29 dia-2]	36
CCC[C@@H](C)OC(=O)[C@H](C)NP(=O)(OC[C@H]1OC[C@@H](n2ccc(N)nc2=O)O1)Oc1ccccc1 (single isomer, unassigned) [30 dia-2]	120
COC(=O)[C@H](C)NP(=O)(OC[C@H]1OC[C@@H](n2ccc(N)nc2=O)O1)Oc1ccc(C2CC2)cc1 (single isomer, unassigned) [34 dia-2]	64

----------
protocol-details: Cell cytotoxicity assay, HEPG2
Assay type: cell-based
condition: human; HepG2 cells, 5 days at 37° C., XTT dye
endpoint: CC50 at 5 days (nM)

>>> df
                                   compound        endpoint  value_comparator  numeric_value
0  CC(C)OC(=O)[C@H](C)NP(=O)(OC[C@H]1OC[C@@H](n2ccc(=O)[nH]c2=O)O1)Oc1ccccc1 (stereo partly shown)  CC50 at 5 days                 >         100000
1  Nc1ccn([C@@H]2CO[C@H](CO)O2)c(=O)n1 [Troxacitabine, reference compound]  CC50 at 5 days                 =            218
2  COC(=O)[C@H](Cc1ccccc1)NP(=O)(OC[C@H]1OC[C@@H](n2ccc(N)nc2=O)O1)Oc1ccccc1 (single isomer, unassigned)  CC50 at 5 days                 =           2720
3  CC(C)OC(=O)[C@H](C)NP(=O)(OC[C@H]1OC[C@@H](n2ccc(N)nc2=O)O1)Oc1ccccc1 (single isomer, unassigned) [Example 3]  CC50 at 5 days                 =            371

----------
Measured CLint Liver S9 by item
protocol-details: Stability in human liver S9 fraction (HLS9)
Type: in vitro ADME
condition: human liver S9 0.4 mg protein/mL, 5 μM test compound, 37° C.

compound	CLint Liver S9 / µL/min/mg
C[C@H](NP(=O)(OC[C@H]1OC[C@@H](n2ccc(N)nc2=O)O1)Oc1cccc2ccccc12)C(=O)OC1CCCCC1 (single isomer, unassigned; dia-1) [6 dia-1]	91
CCC[C@H](C)OC(=O)[C@H](C)NP(=O)(OC[C@H]1OC[C@@H](n2ccc(N)nc2=O)O1)Oc1ccc(C2CC2)cc1 (single isomer, unassigned; dia-1) [16 dia-1]	50
C[C@H](NP(=O)(OC[C@H]1OC[C@@H](n2ccc(N)nc2=O)O1)Oc1cccc2ccccc12)C(=O)OC1CCCC1 (single isomer, unassigned; dia-1) [22 dia-1]	49
CC(C)OC(=O)[C@H](C)NP(=O)(OC[C@H]1OC[C@@H](n2ccc(N)nc2=O)O1)Oc1cccc2ccccc12 (single isomer, unassigned; dia-2) [5 dia-2]	31
C[C@H](NP(=O)(OC[C@H]1OC[C@@H](n2ccc(N)nc2=O)O1)Oc1cccc2ccccc12)C(=O)OCc1ccccc1 (single isomer, unassigned; dia-2) [9 dia-2]	94
Nc1ccn([C@@H]2CO[C@H](COP(=O)(N[C@@H](Cc3ccccc3)C(=O)OC3CCCCC3)Oc3ccc(Br)cc3)O2)c(=O)n1 (single isomer, unassigned; dia-1) [7 dia-1]	148
CCCC(CCC)COC(=O)[C@H](C)NP(=O)(OC[C@H]1OC[C@@H](n2ccc(N)nc2=O)O1)Oc1ccc(Br)cc1 (single isomer, unassigned; dia-2) [23 dia-2]	300
CC[C@@H](C)OC(=O)[C@H](C)NP(=O)(OC[C@H]1OC[C@@H](n2ccc(N)nc2=O)O1)Oc1cccc(C2CCC2)c1 (single isomer, unassigned; dia-2) [33 dia-2]	230
CC[C@@H](C)OC(=O)[C@H](C)NP(=O)(OC[C@H]1OC[C@@H](n2ccc(N)nc2=O)O1)Oc1ccc([Si](C)(C)C)cc1 (single isomer, unassigned; dia-2) [11 dia-2]	81
C[C@H](NP(=O)(OC[C@H]1OC[C@@H](n2ccc(N)nc2=O)O1)Oc1ccccc1)C(=O)OCc1ccccc1 (single isomer, unassigned; dia-2) [19 dia-2]	24
